Test system: soybean
Assay: Test C postemergence
Type: in vivo, Glycine max
Conditions: Postemergence, 125 g ai/ha; 0 to 100 scale (0 no effect, 100 complete control), 10 days
In this section, each of the molecules is paired with its reported Plant response rating, Soybean.
Answer with a number only.

Reference set (3 entries):
molecule | measured.number
C[C@H]1CN(C(=O)c2cccc(-n3cnc(OS(C)(=O)=O)n3)c2)c2cccc(Cl)c2O1 | 100
Cc1cccc2c1OC(C(F)(F)F)CN2C(=O)c1ccnc(-n2cnc(C(C)C)n2)c1 (stereo not shown) [Compound 327] | 100
COc1ccc(-n2cnc(C3CCC3)n2)cc1C(=O)N1C[C@H](C)Oc2c(Cl)cccc21 | 100

In: Which Plant response rating, Soybean is listed for COc1ncn(-c2cccc(C(=O)N3C[C@H](C)Oc4c(C)cccc43)c2)n1 ?
Out: 100

###

Test system: oat, wild
Assay: Test A preemergence
Assay type: in vivo, Avena fatua
Conditions: 500 g ai/ha, visual injury after 10 days, 0 to 100 scale, 0 is no effect, 100 is complete control
readout.kind: Plant response rating, Oat, Wild
Please reply with the value in numeric form only.

given.smiles | Plant response rating, Oat, Wild
COCCc1ncn(-c2cccc(C(=O)N3C[C@H](C)Oc4c(C)cccc43)c2)n1 | 90
CC(C)c1ncn(-c2cc(C(=O)N3C[C@H](C)Oc4c(Cl)cccc43)c3ccccc3c2)n1 | 20
CC(C)c1ncn(-c2ccc(C#N)c(C(=O)N3C[C@H](C)Oc4c(Cl)cccc43)c2)n1 | 70
C[C@H]1CN(C(=O)c2cc(I)cc(-n3cncn3)c2)c2cccc(Cl)c2O1 | 0
CC(C)Cc1ncn(-c2cccc(C(=O)N3C[C@H](C)Oc4c(Cl)cccc43)c2)n1 | 20
CC(C)c1ncn(-c2ccc(OC(F)F)c(C(=O)N3C[C@H](C)Oc4c(Cl)cccc43)c2)n1 | 90

In: Looking for the measured Plant response rating, Oat, Wild of COc1cc(C(=O)N2C[C@H](C)Oc3c(Cl)cccc32)cc(-n2cncn2)c1 , can you help?
Out: 90

In: Could you tell me which Plant response rating, Oat, Wild is on file for Cc1nc(C)n(-c2cccc(C(=O)N3C[C@H](C)Oc4c(Cl)cccc43)c2)n1 ?
Out: 0

###

Test system: oat, wild
Assay: Test C preemergence
Type: in vivo, Avena fatua
Details: 500 g ai/ha, preemergence; 0 to 100 scale (0 no effect, 100 complete control)
# Oat, Wild plant response rating values compiled below

// below: answered compounds
compound | readout.kind | result
COC(=O)c1ncn(-c2ccc(C)c(C(=O)N3C[C@H](C)Oc4c(Cl)cccc43)c2)n1 [Compound 315] | Oat, Wild plant response rating | 60
CNc1ncn(-c2cccc(C(=O)N3C[C@H](C)Oc4c(C)cccc43)c2)n1 [Compound 337] | Oat, Wild plant response rating | 20
CCOC[C@H]1CN(C(=O)c2cc(-n3cnc(CC)n3)ccc2C)c2cccc(Cl)c2O1 [Compound 412] | Oat, Wild plant response rating | 0
CC(C)c1ncn(-c2ccc(OS(C)(=O)=O)c(C(=O)N3C[C@H](C)Oc4c(Cl)cccc43)c2)n1 [Compound 338] | Oat, Wild plant response rating | 50
Cc1ccc(-n2cnc(C(C)C)n2)cc1C(=O)N1CC(C(F)(F)F)Oc2c(Cl)cccc21 (single isomer, unassigned) [Compound 292] | Oat, Wild plant response rating | 80

In: Field request: Oat, Wild plant response rating | item: CCc1ncn(-c2cccc(C(=O)N3CC(C(F)(F)F)Oc4c(Cl)cccc43)c2)n1 (stereo not drawn) [Compound 345]
Out: 80

In: Endpoint output: Oat, Wild plant response rating of C[C@H]1CN(C(=O)c2cc(-n3cncn3)cc(C(F)(F)F)c2)c2cccc(Cl)c2O1 [Compound 335] . Value?
Out: 10

In: I am curious: what Oat, Wild plant response rating value has been reported for COC(C)c1ncn(-c2ccc(C)c(C(=O)N3CC(C)Oc4c(Cl)cccc43)c2)n1 (mixture of isomers) [Compound 359] ?
Out: 90

###

Test system: kochia
Test: Test C postemergence
Type: in vivo, Bassia scoparia
Details: Postemergence, 125 g ai/ha; 0 to 100 scale (0 no effect, 100 complete control), 10 days
Think of 50 as a floor: if Plant response rating, Kochia stands on it or above, it is criterion met; beneath it, criterion not met.

molecule | measured.target | category.label
CCOC[C@H]1CN(C(=O)c2cc(-n3cnc(CC)n3)cc3c2OCCO3)c2cccc(Cl)c2O1 [Compound 387] | kochia | criterion met
CC(C)c1ncn(-c2cccc(C(=O)N3CC(C(F)(F)F)Oc4c(Cl)cccc43)c2)n1 (stereo not drawn) [Compound 348] | kochia | criterion met
COC(=O)c1ncn(-c2ccc(C)c(C(=O)N3C[C@H](C)Oc4c(Cl)cccc43)c2)n1 [Compound 315] | kochia | criterion not met
Cc1cccc2c1OC(C(F)(F)F)CN2C(=O)c1ccnc(-n2cnc(C(C)C)n2)c1 (stereo not drawn) [Compound 327] | kochia | criterion not met
Cc1ccc(-n2cnc(C#N)n2)cc1C(=O)N1C[C@H](C)Oc2c(Cl)cccc21 [Compound 363] | kochia | criterion not met
COc1ccc(-n2cnc(C3CC3)n2)cc1C(=O)N1C[C@H](C)Oc2c(Cl)cccc21 [Compound 324] | kochia | criterion met
Cc1ncnn1-c1cc(C(=O)N2CC(C(F)(F)F)Oc3c(Cl)cccc32)ccn1 (racemic) [Compound 333] | kochia | criterion not met
CC(C)c1ncn(-c2cc(C(=O)N3CC(C(F)(F)F)Oc4c(Cl)cccc43)ccn2)n1 (single isomer, unassigned) [Compound 331] | kochia | criterion not met

In: Given the entry COC[C@H]1CN(C(=O)c2cc(-n3cnc(C(C)(C)O)n3)ccc2OC)c2cccc(Cl)c2O1 [Compound 408] , answer whether its Plant response rating, Kochia meets or surpasses 50.
Out: criterion met

In: Decide: is the reported value of Plant response rating, Kochia for COC[C@H]1CN(C(=O)c2cc(-n3cnc(C4CCC4)n3)cc3c2OCCO3)c2cccc(Cl)c2O1 [Compound 380] equal to or greater than 50?
Out: criterion met

In: Plant response rating, Kochia >= 50 for CCOCC1CN(C(=O)c2cc(-n3cnc(C(C)(C)C)n3)ccc2OC)c2cccc(Cl)c2O1 (stereo not drawn) [Compound 379] ?
Out: criterion met

In: Test whether the molecule Cc1ncn(-c2ccc(F)c(C(=S)N3C[C@H](C)Oc4c(C)cccc43)c2)n1 [Compound 362] records Plant response rating, Kochia of 50 or higher.
Out: criterion met

In: Hello, I need to know if CSc1ccc(-n2cnc(C(C)C)n2)cc1C(=O)N1C[C@H](C)Oc2c(Cl)cccc21 [Compound 391] has measured Plant response rating, Kochia not below 50. Thanks!
Out: criterion met

In: Is it the case that CC(C)c1ncn(-c2cc(C(=O)N3CC(C(F)(F)F)Oc4c(Cl)cccc43)ccn2)n1 (single isomer, unassigned) [Compound 330] has Plant response rating, Kochia reaching or exceeding 50?
Out: criterion met

In: Textbook exercise: given the entry Cc1ncn(-c2cccc(C(=O)N3C[C@H](C)Oc4c(Cl)cccc43)c2)n1 [Compound 326] , state whether its Plant response rating, Kochia is greater than or equal to 50.
Out: criterion met

In: Could you please find out whether CCOc1ncn(-c2cccc(C(=O)N3C[C@H](C)Oc4c(Cl)cccc43)c2)n1 [Compound 311] has Plant response rating, Kochia that meets 50 or exceeds it?
Out: criterion not met

In: Given the entry CCOC[C@H]1CN(C(=O)c2cc(-n3cnc(C(C)C)n3)ccc2C)c2cccc(Cl)c2O1 [Compound 340] , answer whether its Plant response rating, Kochia meets or surpasses 50.
Out: criterion met

###

Recorded measurements of Plant response rating, Foxtail, Green, one per entry
System: green foxtail
Assay: Test C postemergence
Format: in vivo, Setaria viridis
Conditions: Postemergence, 500 g ai/ha, 10 days, visual 0 to 100 scale (0 no effect, 100 complete control)
The answer should be written as a number, with no unit following it.

compound | Plant response rating, Foxtail, Green
Cc1ccc(-n2cnc(C(C)(C)C)n2)cc1C(=O)N1CC(C(F)(F)F)Oc2c(Cl)cccc21 (single isomer, unassigned) | 80
C[C@H]1CN(C(=O)c2cccc(-n3cnc(C(C)(C)O)n3)c2)c2cccc(Cl)c2O1 | 90
CCc1ncn(-c2cc3c(c(C(=O)N4C[C@H](C)Oc5c(Cl)cccc54)c2)OCCO3)n1 | 90
C[C@H]1CN(C(=O)c2cccc(-c3ncccn3)c2)c2cccc(Cl)c2O1 | 10
CCc1ccc(-n2cnc(C(C)C)n2)cc1C(=O)N1C[C@H](C)Oc2c(C)cccc21 | 90

In: Record CCc1ccc(-n2cnc(C(C)(C)O)n2)cc1C(=O)N1C[C@H](C)Oc2c(C)cccc21 : what is its Plant response rating, Foxtail, Green with green foxtail?
Out: 90

In: Look up Plant response rating, Foxtail, Green with green foxtail for this compound: CC(C)c1ncn(-c2cc(O)c(O)c(C(=O)N3C[C@H](C)Oc4c(Cl)cccc43)c2)n1
Out: 0

Reference source: patent US20260262643A1
